Experiment: Cytotoxic activity against human colon adenocarcinoma in vitro
Type: functional
MEASURED PROPERTY: log10 Cytotoxic concentration (log10 of the value in nM)
Kindly note that the scale is log10 and the underlying Cytotoxic concentration is in nM.

In the examples that follow, each entry is paired with its recorded log10 Cytotoxic concentration.
SMILES CODE | OBSERVED RESULT
CN(C)CCCN1C(=O)c2cc([N+](=O)[O-])cc3cc([N+](=O)[O-])cc(c23)C1=O.Cl | 3.07
Cl.O=C1c2cc([N+](=O)[O-])cc3cc([N+](=O)[O-])cc(c23)C(=O)N1CCN1CCCC1 | 2.24
CN(C)CCN1C(=O)c2cc([N+](=O)[O-])cc3cc([N+](=O)[O-])cc(c23)C1=O.Cl | 1.62
Cl.Nc1cc2c3c(cc(N)cc3c1)C(=O)N(CCN1CCCCC1)C2=O | 3.10

The recorded log10 Cytotoxic concentration for entry CN(C)CCN1C(=O)c2cc(N)cc3cc(N)cc(c23)C1=O.Cl.Cl.Cl equals 2.83

Lab note: measured log10 Cytotoxic concentration of CCN(CC)CCN1C(=O)c2cc([N+](=O)[O-])cc3cc([N+](=O)[O-])cc(c23)C1=O.Cl was 2.91

What the record says about Cl.O=C1c2cc([N+](=O)[O-])cc3cc([N+](=O)[O-])cc(c23)C(=O)N1CCN1CCOCC1 : log10 Cytotoxic concentration is 2.86

O=C1c2cc([N+](=O)[O-])cc3cc([N+](=O)[O-])cc(c23)C(=O)N1CCNCCO.O=S(=O)(O)O has a reported log10 Cytotoxic concentration of 3.10

Value of log10 Cytotoxic concentration reported for the compound Cl.O=C1c2cc([N+](=O)[O-])cc3cc([N+](=O)[O-])cc(c23)C(=O)N1CCN1CCCCC1 is 2.73

----------
Tested on: Mus musculus
Assay: Compound was evaluated for inhibitory activity in vivo against P388 leukemia cells in mice at a dose of 200 mg/kg upon intraperitoneal administration
Assay type: functional
MEASURED PROPERTY: T/C
Hey, just send me the number, nothing else.

SMILES CODE | T/C
COc1ccc2c3c(cccc13)C(=O)N(CCN(C)C)C2=O | 133

Recorded result, CN(C)CCN1C(=O)c2cccc3c(O)ccc(c23)C1=O.I , T/C: 112

----------
Tested on: Mus musculus
Test: Compound was evaluated for inhibitory activity in vivo against P388 leukemia cells in mice at a dose of 200 mg/kg upon intraperitoneal administration
Format: functional
MEASURED PROPERTY: T/C
Answer field: number only, no words.

Examples from the recorded data:
SMILES CODE | ASSAY SYSTEM | T/C
COc1ccc2c3c(ccc(OC)c13)C(=O)N(CCN(C)C)C2=O | Mus musculus | 123
CN(C)CCN1C(=O)c2cc(O)cc3cc(O)cc(c23)C1=O | Mus musculus | 149

Field: next compound
Sample CN(C)CCN1C(=O)c2cccc3cc(O)cc(c23)C1=O , system: Mus musculus. Its T/C is 142
